Reference source: patent US20100280227A1

# TARGET ENTITY: T1, human BR3 extracellular domain (human, UniProt Q96RJ3 1-61)
# T1 construct: biotinylated where used as tracer; also called hBR3-ECD; BR3-ECD
# MEASUREMENT PROTOCOL: F(ab)'2 phage solution binding competition ELISA
ASSAY ENDPOINT: binding result

The cases that follow already have their binding result on record.
24 (Fab, V domains shown, also called V24; clone 24) VH: EVQLVESGGGLVQPGGSLRLSCAASGFTISGSSIHWVRQAPGKGLEWVGTIYPYGGNTYYADSVKGRFTISADTSKNTAYLQMNSLRAEDTAVYYCARRAFVMSGMDYWGQGTLVTVSS VL: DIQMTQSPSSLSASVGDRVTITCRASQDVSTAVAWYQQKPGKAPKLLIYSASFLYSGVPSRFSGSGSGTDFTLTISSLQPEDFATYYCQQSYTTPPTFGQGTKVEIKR; binds
96 (Fab, V domains shown, also called V96; clone 96) VH: EVQLVESGGGLVQPGGSLRLSCAASGFTINSSAIHWVRQAPGKGLEWVGYITPASGYTDYADSVKGRFTISADTSKNTAYLQMNSLRAEDTAVYYCAKGFHWYRGFFDYWGQGTLVTVSS VL: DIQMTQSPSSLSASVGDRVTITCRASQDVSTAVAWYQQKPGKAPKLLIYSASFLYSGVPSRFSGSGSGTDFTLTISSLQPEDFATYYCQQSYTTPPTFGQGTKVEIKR; binds
46 (Fab, V domains shown, also called V46; clone 46 of the naive library (not V3-46)) VH: EVQLVESGGGLVQPGGSLRLSCAASGFTITGSYIHWVRQAPGKGLEWVAWIYPDGGYTDYADSVKGRFTISADTSKNTAYLQMNSLRAEDTAVYYCASKPAGFGYWGQGTLVTVSS VL: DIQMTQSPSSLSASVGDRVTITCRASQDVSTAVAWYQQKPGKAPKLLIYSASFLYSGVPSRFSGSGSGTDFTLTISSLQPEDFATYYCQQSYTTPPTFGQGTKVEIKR; binds
51 (Fab, V domains shown, also called V51; clone 51) VH: EVQLVESGGGLVQPGGSLRLSCAASGFTISSTGIHWVRQAPGKGLEWVGGISPSSGSTNYADSVKGRFTISADTSKNTAYLQMNSLRAEDTAVYYCARRKVVSSHVTNKYVMDYWGQGTLVTVSS VL: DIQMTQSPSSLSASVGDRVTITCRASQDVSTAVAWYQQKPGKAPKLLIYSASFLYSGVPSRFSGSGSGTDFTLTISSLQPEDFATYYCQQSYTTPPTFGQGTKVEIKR; binds

Alright, here's another binder for you.
(Q) For 75 (Fab, V domains shown, also called V75; clone 75) VH: EVQLVESGGGLVQPGGSLRLSCAASGFTINGSWIHWVRQAPGKGLEWVAWITPSNGSTDYADSVKGRFTISADTSKNTAYLQMNSLRAEDTAVYYCARLSRRPWLWGMDYWGQGTLVTVSS VL: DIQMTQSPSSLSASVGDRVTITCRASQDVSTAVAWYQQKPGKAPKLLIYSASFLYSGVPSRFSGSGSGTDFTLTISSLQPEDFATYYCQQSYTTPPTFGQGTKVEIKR , what is its reported binding result?
(A) binds
